Tested on: FP(eGFP)-DBP (synthetic construct; expressed in E. coli BL21 (DE3))
test-name: EMSA
experimental-parameters: EMSA: 1x TE (10 mM Tris, 1 mM EDTA, pH 8.0) with 50% (v/v) glycerol, 10 ul, DNA stock ~31.4 nM, protein stocks 74 nM-148 uM, 0.5x TBE 4-20% PAGE, temperature …
reported-property: pKd
Recall that pKd is obtained by taking minus log10 of the concentration measured in molar.

Prompt: Looking for the measured pKd of CTACTAGCACAATCGACTGTACGGACCGATCGAGTCACTAGCAGTCTAGCAA (double strand) [52-mer random dsDNA] , can you help?
Response: 4.83
